Kindly state inhibition for each of the entries shown.
Molecular target: Glucose transporter (Leishmania mexicana) (UniProt O61059)
Assay: ST_JUDE_LEISH: Cytotoxicity at 2uM final concentration against transgenic Leishmania Mexicana promastigotes LmGT2 that are glucose transport deficient and complemented with the L. Mexicana glucose transporter 2. Activity is measured by DNA content using SYBR green in vitro
Type: functional
Write the value in % as a bare number.

// inhibition lookup, key: COc1cccc(O)c1CNCC(O)c1cccc(C(F)(F)F)c1 (centres undefined)
0.29

// inhibition lookup, key: COc1cc2c(c(OC)c1OC)C[C@H]1c3c(cc4c(c3-2)OCO4)CCN1C
1.06

// inhibition lookup, key: O=C(/C=C/c1ccc(Cl)c(Cl)c1)N1CCC(CN2C3CCC2CC(c2c[nH]c4ccccc24)C3)CC1 (centres undefined)
0.89

// inhibition lookup, key: CC(C)CNCc1cccc(-c2ccc(CN(C(=O)c3cccs3)C3CCN(Cc4ccccc4)CC3)cc2)c1
6.86

// inhibition lookup, key: O=C(NC1CCC(CN2CCC(c3c[nH]c4ccccc34)CC2)CC1)c1ccc(-c2ccccc2[N+](=O)[O-])o1 (centres undefined)
-0.67

// inhibition lookup, key: Oc1ccccc1CNCC(O)c1cc(C(F)(F)F)cc(C(F)(F)F)c1 (centres undefined)
4.91

// inhibition lookup, key: COc1ccc2[nH]cc(C3=CCN(CC4CC4C(=O)c4ccccc4)CC3)c2n1 (centres undefined)
11.3

// inhibition lookup, key: O=C(/C=C/c1ccc(Cl)c(Cl)c1)N1CCC2CC(N3CCC(c4c[nH]c5ccccc45)CC3)CCC2C1 (centres undefined)
0.24

// inhibition lookup, key: O=C(Nc1ccc(Oc2ccccc2)cc1)NC1CCC(CN2CCC(c3c[nH]c4ccccc34)CC2)CC1 (centres undefined)
-0.05
